- experimental-system: gamma secretase (Homo sapiens, UniProt P49768)
- Construct: HEK293 cells stably expressing full length Amyloid Precursor Protein (APP); endogenous in cells
- assay-explanation: GSM cell-based assay: Aβ 42 inhibition or reduction in HEK 293 cells over-expressing APP (sandwich ELISA)
- condition-description: approximate IC50; HEK293 cells stably expressing full length APP, 24 hours incubation, 10-point dose response starting at 10 μM
pIC50: −log10 of the molar value.
assay-readout: pIC50

INSERT INTO results (compound, assay_readout, meas_value) VALUES
  ('Cc1cc(-c2ccc(NC(=O)C3(c4ccc(Cl)cc4)CCC3)cc2)ccn1', 'pIC50', 6.24),
  ('COc1ccc(C(=O)Nc2ccc(-c3ccnc(C)c3)cc2)cc1Cl', 'pIC50', 6.25);

P = Cc1cc(-c2ccc(NC(=O)C(C)c3ccc(N4CCCCC4)nc3)cc2)ccn1 (stereo not drawn)
Q = COc1ccc(Cl)cc1C(=O)Nc1ccc(-c2ccnc(C)c2)cc1
## Input Endpoint returns the identifier whose pIC50 is numerically larger, either P or Q . Record your answer as the label of the chosen record.
## Output P

* * *

- experimental-system: gamma secretase (Homo sapiens)
- Construct: HEK293 cells stably expressing full length Amyloid Precursor Protein (APP); endogenous in cells
- assay-explanation: GSM cell-based assay: Aβ 42 inhibition or reduction in HEK 293 cells over-expressing APP (sandwich ELISA)
- condition-description: approximate IC50; HEK293 cells stably expressing full length APP, 24 hours incubation, 10-point dose response starting at 10 μM
assay-readout: IC50 (µM)

a = Cc1cc(-c2ccc(NC(=O)C(C)c3cccc(Br)c3)cc2C#N)ccn1 (centres unmarked)
b = Cc1cc(-c2ccc(NC(=O)Cc3cccc(Cl)c3)cc2)ccn1
c = Cc1cc(-c2ccc(NC(=O)Cc3ccc(OC(F)(F)F)cc3)cc2)ccn1
## Input Could you arrange the 3 compounds above by IC50, starting with the largest number? Give the labels in the order requested.
## Output a, c, b

* * *

- experimental-system: gamma secretase (Homo sapiens, UniProt P49768)
- Construct: HEK293 cells stably expressing full length Amyloid Precursor Protein (APP); endogenous in cells; host or cells: HEK 293 cells stably expressing full length APP
- assay-explanation: GSM cell-based assay: Aβ 42 inhibition or reduction in HEK 293 cells over-expressing APP (sandwich ELISA)
- condition-description: approximate IC50; HEK293 cells stably expressing full length APP, 24 hours incubation, 10-point dose response starting at 10 μM
assay-readout: IC50 (nM)

INSERT INTO results (molecule, meas_value) VALUES
  ('Cc1cccc([C@H](CC(C)C)C(=O)Nc2ccc(-c3ccnc(C)c3)cc2)c1', 1730);

I = Cc1cc(-c2ccc(NC(=O)C(C)n3cc(-c4ccccc4)c(C)n3)cc2)ccn1 (centres unmarked)
II = Cc1cc(-c2ccc(NC(=O)C(C)c3cccc(-c4ccc(S(C)(=O)=O)cc4)c3)cc2)ccn1 (centres unmarked)
## Input Which has the smaller recorded IC50, I or II ? Please indicate the selected item by its label.
## Output II
(II: 628 nM, I: 908 nM)

P = CSc1cccc(C(C)C(=O)Nc2ccc(-c3ccnc(C)c3)cc2)c1 (centres unmarked)
Q = Cc1cc(-c2ccc(NC(=O)C3CCc4ccccc43)cc2)ccn1 (centres unmarked)
## Input Short answer wanted: higher IC50, P or Q ? Provide the label of your selected option as the answer.
## Output Q
(Q: 3860 nM, P: 1050 nM)

Values were extracted from patent US20110166132A1.
